- System: TMPRSS2 mRNA
- TEST_NAME: TMPRSS2 mRNA levels in LMR20 cells
- Format: cell-based, human
- TEST_CONDITIONS: LMR20 cells, no AR agonist, ASO 5.0 μM
Oligonucleotides are written 5' to 3', each unit as a sugar letter and its base; * is a phosphorothioate linkage, no mark a phosphodiester; rarer units and linkages stand in square brackets, end groups in braces. Plain capitals give the bases only. e = 2'-O-(2-methoxyethyl) (MOE); l = locked nucleic acid (LNA); k = constrained ethyl (cEt); [5mC] = 5-methylcytosine; d = 2'-deoxy (DNA)
So I've got a bunch of substances here, and I need their TMPRSS2 mRNA levels (% baseline value) of cells without AR agonist treatment values.
Numbers only, in % baseline value.

Field: example entries. Status: answers known.
SUBSTANCE: 560131 (antisense kT*kT*kG*dA*dT*dT*dT*dA*dA*dT*dG*dG*kT*kT*kG*e[5mC]) [compound 560131]
NUMERIC_READOUT: 45
--
SUBSTANCE: 549458 (kG*kT*kT*dG*dA*dT*dT*dT*dA*dA*dT*dG*dG*kT*kT*kG) [compound 549458]
NUMERIC_READOUT: 62
--
SUBSTANCE: 569236 (antisense eT*kG*kA*kT*dT*dT*dA*dA*dT*dG*dG*kT*kT*kG*e[5mC]*eA) [compound 569236]
NUMERIC_READOUT: 48

Please find the next substance below.
Give the reported TMPRSS2 mRNA levels (% baseline value) of cells without AR agonist treatment for 554221 (ACCAAGTTTCTTCAGC; sugars from the 5' end l3 d10 l3, all phosphorothioate, methylation of C not given here) [compound 554221] (system: TMPRSS2 mRNA).
73
